# test.method.notes: Pharmacokinetics in SD rats, intravenous injection for 5 consecutive days
# Assay type: in vivo
# reported.conditions: male, Sprague-Dawley (SD), rat, plasma, 20 mg/kg, 20 mg/kg intravenous daily, Day 5, read-out: Half-time T1/2 (converted)
measured.attribute: half-life (h)
Write it as a number; the unit h goes unstated.

Look at this compound and give its reported half-life. CC(C)(O)c1ccc(-c2cnc(C(C)(C)O)c(N)c2)cc1N
2.72

----------
# measurement.target: UniProt P11712
# Sequence (P11712 whole entry): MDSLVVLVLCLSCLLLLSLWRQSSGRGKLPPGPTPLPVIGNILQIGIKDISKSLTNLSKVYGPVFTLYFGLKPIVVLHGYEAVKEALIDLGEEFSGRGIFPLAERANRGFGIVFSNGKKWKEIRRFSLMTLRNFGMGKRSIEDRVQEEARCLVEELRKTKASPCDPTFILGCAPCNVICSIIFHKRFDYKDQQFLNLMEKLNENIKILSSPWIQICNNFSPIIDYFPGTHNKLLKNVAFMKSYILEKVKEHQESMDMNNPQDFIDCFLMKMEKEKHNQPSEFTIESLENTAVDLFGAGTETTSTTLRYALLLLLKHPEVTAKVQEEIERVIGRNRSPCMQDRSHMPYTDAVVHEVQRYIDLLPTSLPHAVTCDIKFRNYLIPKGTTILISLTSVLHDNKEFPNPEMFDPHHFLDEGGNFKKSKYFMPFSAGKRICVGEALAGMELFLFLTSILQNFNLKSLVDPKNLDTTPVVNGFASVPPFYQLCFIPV
measured.attribute: IC50

Could you share what IC50 was measured for CC(C)(O)c1cc(Cl)c(-c2cnc(C(C)(C)O)c(N)c2)cc1N [Compound 8] , tested on UniProt P11712?
> 50 µM

----------
# test.method.notes: Corneal and plasma drug concentration after eye drops in rats
# Format: in vivo
# reported.conditions: male, Sprague-Dawley (SD), rat, cornea/plasma, topical, 5 mg/mL, eye drops, statement in the conclusion, no time point, read-out: ratio of cornea/plasma concentrations
# Method: Objective: To Study the Ratio of Corneal to Plasma Drug Concentration After Eye Drops in Rats Experimental Materials: Male SD Rats, 200-300 g, 7-9 weeks old, Shanghai Lingchang Experimental procedures: The candidate compound was prepared as a clear solution, and administered to SD rats by eye drops. The vehicle for eye drops was 10% hydroxypropyl β-cyclodextrin aqueous solution, and the drug concentration in the eye drops was 5 mg/mL. […]
measured.attribute: Kp

// Kp lookup, key: CC(C)(O)c1ccc(-c2cnc(C(C)(C)O)c(N)c2)cc1N [Compound 3]
> 10

----------
# test.method.notes: Corneal and plasma drug concentration after eye drops in rats
# Type: in vivo
# reported.conditions: male, Sprague-Dawley (SD), rat, cornea, topical, eye drops 5 mg/mL, 1 h, read-out: Corneal Concentration
Exercise: for every item that follows, state its recorded concentration at 1 h.
The figure you give is taken to be in nM; do not add the unit.

Given the molecule CC(C)(O)c1cc(Cl)c(-c2cnc(C(C)(C)O)c(N)c2)cc1N , what is its reported concentration at 1 h?
1660

Lookup CC(C)(O)c1ccc(-c2cnc(C(C)(C)O)c(N)c2)cc1N
1800

----------
# test.method.notes: Pharmacokinetics in Beagle dogs, single intravenous injection
# Type: in vivo
# reported.conditions: male, dog, plasma, 1 mg/kg single intravenous injection, read-out: Area under the concentration-time curve AUC
measured.attribute: AUC (µM·h)
Kindly provide the numeric value in µM·h only, without the unit symbol.

Looking for the measured AUC of CC(C)(O)c1ccc(-c2cnc(C(C)(C)O)c(N)c2)cc1N , can you help?
3.71

----------
Could you please report measured IC50 for the items listed next?
# measurement.target: CYP1A2 (Homo sapiens)
# Sequence (P05177 1-516): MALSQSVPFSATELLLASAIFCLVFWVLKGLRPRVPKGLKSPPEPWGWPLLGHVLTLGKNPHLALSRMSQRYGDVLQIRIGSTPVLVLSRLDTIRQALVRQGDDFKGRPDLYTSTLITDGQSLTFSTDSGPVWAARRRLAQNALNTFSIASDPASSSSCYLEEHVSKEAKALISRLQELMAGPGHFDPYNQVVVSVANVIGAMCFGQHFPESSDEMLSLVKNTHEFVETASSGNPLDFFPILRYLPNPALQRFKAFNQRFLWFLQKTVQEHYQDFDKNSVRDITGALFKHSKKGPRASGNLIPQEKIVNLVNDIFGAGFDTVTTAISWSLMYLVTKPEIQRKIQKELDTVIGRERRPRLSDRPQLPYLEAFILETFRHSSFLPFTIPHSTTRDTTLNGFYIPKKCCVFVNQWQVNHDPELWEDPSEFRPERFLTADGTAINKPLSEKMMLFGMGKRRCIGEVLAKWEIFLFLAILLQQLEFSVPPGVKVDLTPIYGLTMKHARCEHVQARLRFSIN

Missing value: IC50, CYP1A2 (Homo sapiens), entry CC(C)(O)c1cc(Cl)c(-c2cnc(C(C)(C)O)c(N)c2)cc1N [Compound 8] . Fill in?
> 50 µM

What about CC(C)(O)c1ccc(-c2cnc(C(C)(C)O)c(N)c2)cc1N [Compound 3] ?
> 50 µM

----------
# test.method.notes: Pharmacokinetics in Beagle dogs, single intravenous injection
# Format: in vivo
# reported.conditions: male, dog, plasma, 1 mg/kg single intravenous injection
measured.attribute: clearance (mL/min/kg)
Answer with a number only, understood to be in mL/min/kg.

What does the record list as clearance for CC(C)(O)c1ccc(-c2cnc(C(C)(C)O)c(N)c2)cc1N [Compound 3] ?
15

----------
# test.method.notes: Pharmacokinetics in SD rats, intravenous injection for 5 consecutive days
# Assay type: in vivo
# reported.conditions: male, Sprague-Dawley (SD), rat, plasma, 20 mg/kg, 20 mg/kg intravenous daily, Day 1, read-out: Area under the concentration-time curve AUC
measured.attribute: AUC (µM·h)
Value expressed in µM·h; do not type the unit.

I'd like to know its AUC. The compound in question is CC(C)(O)c1ccc(-c2cnc(C(C)(C)O)c(N)c2)cc1N [Compound 3]
156

----------
# measurement.target: CYP2C19 (Homo sapiens, UniProt P33261)
# Sequence (P33261 whole entry): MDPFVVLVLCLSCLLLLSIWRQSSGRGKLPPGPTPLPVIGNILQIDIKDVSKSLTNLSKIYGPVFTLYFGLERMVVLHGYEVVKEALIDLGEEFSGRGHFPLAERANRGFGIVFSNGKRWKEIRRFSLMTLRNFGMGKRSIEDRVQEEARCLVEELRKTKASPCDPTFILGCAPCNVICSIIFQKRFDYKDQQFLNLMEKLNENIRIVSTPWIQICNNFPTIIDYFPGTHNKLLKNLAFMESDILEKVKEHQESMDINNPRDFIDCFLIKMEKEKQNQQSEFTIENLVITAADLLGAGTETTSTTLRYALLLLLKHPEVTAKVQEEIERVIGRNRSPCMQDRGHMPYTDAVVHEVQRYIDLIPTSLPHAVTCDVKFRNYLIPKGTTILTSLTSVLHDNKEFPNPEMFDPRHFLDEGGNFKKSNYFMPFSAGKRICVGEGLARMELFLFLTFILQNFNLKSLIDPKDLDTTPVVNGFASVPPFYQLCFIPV
measured.attribute: IC50

For the record CC(C)(O)c1ccc(-c2cnc(C(C)(C)O)c(N)c2)cc1N , what value of IC50 is listed for CYP2C19 (Homo sapiens, UniProt P33261)?
> 50 µM

----------
# test.method.notes: Corneal and plasma drug concentration after eye drops in rats
# Type: in vivo
# reported.conditions: male, Sprague-Dawley (SD), rat, plasma, topical, eye drops 5 mg/mL, 1 h, read-out: Plasma Concentration
Task for the reader: assign each of the following molecules its reported concentration at 1 h.
Could you give me the number in µM? Just the number is fine.

Which measured concentration at 1 h value corresponds to CC(C)(O)c1ccc(-c2cnc(C(C)(C)O)c(N)c2)cc1N [Compound 3] ?
0.162

Subsequent entry: CC(C)(O)c1cc(Cl)c(-c2cnc(C(C)(C)O)c(N)c2)cc1N [Compound 8]
0.148

----------
# test.method.notes: In vitro aldehyde capture capacity test (complexing with nonanal, HPLC at 254 nm)
# reported.conditions: Time 10 min
# y = percentage content of complexed products at 254 nm below 3% (exclusive); n = percentage content of complexed products at 254 nm at/above 3%

Quick check: does CC(C)(O)c1nc(-c2ccc(N)c(C(C)(C)O)n2)ccc1N [Compound 1] have percentage content of complexed products at 254 nm under 3%?
y

How about this molecule: CC(C)(O)c1ccc(-c2cnc(C(C)(C)O)c(N)c2)cc1N [Compound 3]
n

Check CC(C)(O)c1cc(Cl)c(-c2cnc(C(C)(C)O)c(N)c2)cc1N [Compound 8] too.
n

Next molecule: CC(C)(O)c1nc(Oc2ccc(N)c(C(C)(C)O)n2)ccc1N [Compound 2]
y

Check CC(C)(O)c1cc(F)c(-c2cnc(C(C)(C)O)c(N)c2)cc1N [Compound 7] too.
n

Then what about the molecule CC(C)(O)c1ncc(-c2cnc(C(C)(C)O)c(N)c2)cc1N [Compound 4] ?
y

Now this one: CC(C)(O)c1cc(F)c(Oc2ccc(N)c(C(C)(C)O)n2)cc1N [Compound 6]
n

Also CC(C)(O)c1ccc(-n2cc(C(C)(C)O)c(N)cc2=O)cc1N [Compound 9] ?
n

----------
# test.method.notes: Pharmacokinetics in cynomolgus monkeys, single intravenous injection
# Type: in vivo
# reported.conditions: male, cynomolgus monkey, plasma, 1 mg/kg single intravenous injection, read-out: Area under the concentration-time curve AUC
measured.attribute: AUC (µM·h)
Could you give me the number in µM·h? Just the number is fine.

Name the recorded AUC for CC(C)(O)c1ccc(-c2cnc(C(C)(C)O)c(N)c2)cc1N [Compound 3] .
9.16

----------
# test.method.notes: Pharmacokinetics in SD rats, intravenous injection for 5 consecutive days
# Assay type: in vivo
# reported.conditions: male, Sprague-Dawley (SD), rat, plasma, 20 mg/kg, 20 mg/kg intravenous daily, Day 1, read-out: Half-time T1/2 (converted)
# Procedure: Objective: To study 5-day Toxicology of Compounds in SD Rats Experimental materials: SD rats (male, 200-300 g, 7-9 weeks old, Shanghai Lingchang) Pharmacokinetic profiles of the compound were tested by intravenous injection in rodents according to the standard protocol. […] Plasma concentrations were quantified by LC-MS/MS analysis, and pharmacokinetic parameters, such as clearance, half-life, and area under the concentration-time curve, were calculated.
measured.attribute: half-life (h)
Reply numerically in h, unit not repeated.

Query (molecule): CC(C)(O)c1ccc(-c2cnc(C(C)(C)O)c(N)c2)cc1N ; field requested: half-life
2.45

----------
# measurement.target: CYP2D6 (Homo sapiens, UniProt P10635)
# Sequence (P10635 whole entry): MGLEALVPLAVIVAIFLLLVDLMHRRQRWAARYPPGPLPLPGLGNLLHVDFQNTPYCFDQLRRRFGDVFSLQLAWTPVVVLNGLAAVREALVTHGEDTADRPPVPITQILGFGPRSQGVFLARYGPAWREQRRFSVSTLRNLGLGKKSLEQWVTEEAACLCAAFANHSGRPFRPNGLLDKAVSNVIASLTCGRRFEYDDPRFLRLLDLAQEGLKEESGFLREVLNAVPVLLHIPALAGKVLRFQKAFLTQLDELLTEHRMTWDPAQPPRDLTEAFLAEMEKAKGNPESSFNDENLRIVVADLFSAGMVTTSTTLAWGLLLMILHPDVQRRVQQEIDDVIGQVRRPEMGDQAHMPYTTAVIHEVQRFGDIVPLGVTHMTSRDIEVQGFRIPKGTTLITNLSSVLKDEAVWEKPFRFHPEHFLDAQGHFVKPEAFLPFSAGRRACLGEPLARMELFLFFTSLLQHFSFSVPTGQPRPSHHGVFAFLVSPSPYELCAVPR
measured.attribute: IC50

Data request, read-out IC50, for CC(C)(O)c1cc(Cl)c(-c2cnc(C(C)(C)O)c(N)c2)cc1N
> 50 µM

----------
# measurement.target: CYP3A4 (Homo sapiens)
# Sequence (P08684 whole entry): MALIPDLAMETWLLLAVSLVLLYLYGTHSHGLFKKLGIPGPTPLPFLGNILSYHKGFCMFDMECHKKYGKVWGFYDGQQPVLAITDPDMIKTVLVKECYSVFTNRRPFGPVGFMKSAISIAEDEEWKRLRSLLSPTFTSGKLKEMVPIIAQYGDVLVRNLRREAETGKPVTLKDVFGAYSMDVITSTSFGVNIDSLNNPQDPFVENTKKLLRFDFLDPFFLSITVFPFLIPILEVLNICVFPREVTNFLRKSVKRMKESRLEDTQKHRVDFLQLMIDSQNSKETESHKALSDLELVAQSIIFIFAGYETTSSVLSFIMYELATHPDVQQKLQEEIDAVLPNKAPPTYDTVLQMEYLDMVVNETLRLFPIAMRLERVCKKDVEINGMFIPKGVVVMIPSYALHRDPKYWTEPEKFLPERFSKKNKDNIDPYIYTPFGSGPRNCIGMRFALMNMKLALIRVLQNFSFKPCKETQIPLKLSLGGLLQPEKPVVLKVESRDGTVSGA
pIC50: −log10 of the molar value.
measured.attribute: pIC50

What does the data say about its pIC50? Entry: CC(C)(O)c1cc(Cl)c(-c2cnc(C(C)(C)O)c(N)c2)cc1N
< 4.30
